# Test system: BLK;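 note: KINOMEscan kinase panel screen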
# condition_details: concentration: 1 μM, replicates: in singlicate; n = 1
property: %Inh (%)

structure_as_smiles	system_under_test	property	recorded_value
Cc1c(Cn2c3ccccc3n3c(=O)cc(N4CCOCC4)nc23)cccc1C(F)(F)F	BLK	%Inh	34
O=C1NC(=O)C(c2ccc(Cl)cc2)=C1Nc1cccc(Cl)c1	BLK	%Inh	12
Cc1nccc(-c2c(-c3ccc(F)cc3)ncn2CCCN2CCOCC2)n1.Cl	BLK	%Inh	12
CS(=O)(=O)CCNCc1nc(-c2ccc3ncnc(Nc4ccc5c(cnn5Cc5ccccc5)c4)c3c2)cs1.Cl.Cl	BLK	%Inh	38
COc1nccc(-c2c(-c3ccc(F)cc3)ncn2CCCN2CCOCC2)n1	BLK	%Inh	0
Fc1ccc(-c2nc3n(c2-c2ccncc2)CCS3)cc1	BLK	%Inh	45
Fc1ccc(-c2nc[nH]c2-c2ccncc2)cc1	BLK	%Inh	25
CC(C)c1cc(-c2ccc3c(N)n[nH]c3c2)nc(N)n1	BLK	%Inh	5
COc1ccc(Nc2nccc(NCCNC(=O)Nc3cc(C)ccc3C)n2)cc1	BLK	%Inh	36

Where do these numbers come from? They come from paper PMC5540273.
